Target: ER (estrogen receptor) (Homo sapiens)
Construct: MCF-7/ERE-luciferase monoclonal cells were selected by transfection of MCF-7
Sequence (P03372 whole entry): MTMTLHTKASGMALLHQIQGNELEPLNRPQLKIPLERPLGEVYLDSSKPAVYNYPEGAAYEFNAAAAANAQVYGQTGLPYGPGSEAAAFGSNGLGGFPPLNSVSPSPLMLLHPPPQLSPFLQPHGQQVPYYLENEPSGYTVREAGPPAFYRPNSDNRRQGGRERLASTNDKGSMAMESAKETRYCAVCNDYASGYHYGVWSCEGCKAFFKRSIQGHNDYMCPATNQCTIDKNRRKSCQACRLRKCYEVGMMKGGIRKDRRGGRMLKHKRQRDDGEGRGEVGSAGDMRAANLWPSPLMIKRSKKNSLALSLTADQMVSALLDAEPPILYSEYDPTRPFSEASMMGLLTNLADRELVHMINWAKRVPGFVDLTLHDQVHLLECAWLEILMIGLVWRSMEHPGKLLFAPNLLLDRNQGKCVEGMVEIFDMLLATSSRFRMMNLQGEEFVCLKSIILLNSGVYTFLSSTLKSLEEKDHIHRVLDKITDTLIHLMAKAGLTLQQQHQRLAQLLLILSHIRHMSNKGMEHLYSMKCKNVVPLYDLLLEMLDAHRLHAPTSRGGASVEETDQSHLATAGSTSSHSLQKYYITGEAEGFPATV
Assay: Inhibition of the binding of estrogen (E) to estrogen receptor (ER), MCF-7/ERE-luciferase reporter cells
Conditions: MCF-7/ERE-luciferase cells, 0.1 nM estradiol, 24 hours, chemiluminescence; read-out: IC50 value of inhibition effect on the binding of E to ER
Param label: returns rule met when IC50 < 7 nM, returns rule not met otherwise, including exact equality.

Q: Confirm or reject: IC50 of CC1Cc2cc(-c3cn[nH]c3)ccc2C(c2ccc(/C=C/C(=O)O)cc2)N1c1ccc(C2CC2)cc1 (stereo not shown) [Example 36] lies strictly below 7 nM
A: rule met

Q: Confirm or reject: IC50 of CC1Cc2cc(-c3cnn(C)c3)ccc2C(c2ccc(/C=C/C(=O)O)cc2)N1c1ccc(C(C)(C)C)cc1 (stereo not shown) [Example 41] lies strictly below 7 nM
A: rule not met

Q: Confirm or reject: IC50 of CCn1cc(-c2ccc3c(c2)CC(C)N(c2ccc(C4CC4)cc2)C3c2ccc(/C=C/C(=O)O)cc2F)cn1 (stereo not shown) [Example 25] lies strictly below 7 nM
A: rule met

Q: Confirm or reject: IC50 of CC1Cc2cc(-c3cnn(C)c3)ccc2C(c2ccc(/C=C/C(=O)O)cc2)N1c1ccc(CC(F)(F)F)cc1 (stereo not shown) [Example 43] lies strictly below 7 nM
A: rule not met

Q: Confirm or reject: IC50 of CCn1cc(-c2ccc3c(c2)CC(C)N(c2ccc(C4CC4)c(F)c2)C3c2ccc(/C=C/C(=O)O)cc2)cn1 (stereo not shown) [Example 26] lies strictly below 7 nM
A: rule met

Q: Confirm or reject: IC50 of CC(C)c1ccc(N2C(C)Cc3cc(-c4cnn(C)c4)ccc3C2c2ccc(/C=C/C(=O)O)cc2)cc1 (stereo not shown) [Example 16] lies strictly below 7 nM
A: rule met

Q: Confirm or reject: IC50 of CCn1cc(-c2ccc3c(c2)CC(C)N(c2ccc(C4CC4)cc2)C3c2c(F)cc(/C=C/C(=O)O)cc2F)cn1 (stereo not shown) [Example 30] lies strictly below 7 nM
A: rule met
